# tested-on: Factor XIa (Homo sapiens, UniProt P03951)
# Sequence (P03951 388-625 limits assumed): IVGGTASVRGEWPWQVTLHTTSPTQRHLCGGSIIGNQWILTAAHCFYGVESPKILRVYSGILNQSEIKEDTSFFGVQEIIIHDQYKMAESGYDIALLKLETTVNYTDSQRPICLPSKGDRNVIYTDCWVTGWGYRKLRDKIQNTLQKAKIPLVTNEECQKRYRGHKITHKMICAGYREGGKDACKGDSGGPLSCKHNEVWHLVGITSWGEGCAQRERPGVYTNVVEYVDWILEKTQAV
# Sequence (P03951 19-387 partner limits assumed): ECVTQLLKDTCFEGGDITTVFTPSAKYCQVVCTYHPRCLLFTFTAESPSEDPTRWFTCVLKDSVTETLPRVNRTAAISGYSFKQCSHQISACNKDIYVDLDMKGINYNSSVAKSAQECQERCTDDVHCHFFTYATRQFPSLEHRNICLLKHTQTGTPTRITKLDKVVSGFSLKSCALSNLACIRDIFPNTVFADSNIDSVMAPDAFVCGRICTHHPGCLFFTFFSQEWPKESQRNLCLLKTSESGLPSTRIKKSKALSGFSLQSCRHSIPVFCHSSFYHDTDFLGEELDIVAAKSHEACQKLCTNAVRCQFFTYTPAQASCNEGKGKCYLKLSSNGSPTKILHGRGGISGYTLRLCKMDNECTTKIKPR
# assay-remarks: Factor XIa inhibition assay utilizing a fluorophore-quencher pair peptide substrate (FLINT)
# Format: biochemical
# settings: kinetic reads; unit μM printed in the cell; read-out: FXIa (KIN) IC50
value-type: IC50

The reported IC50 of the molecule `[O-][n+]1cc(-c2c(-n3cc(C(F)(F)F)nn3)ccc(Cl)c2F)ccc1[C@H](CCOC(F)F)n1cnc(-c2ncnn2C(F)F)c1` was > 10 µM

* * *

I'd appreciate it if you could supply IC50 values for the items below.
# tested-on: human plasma kallikrein (Homo sapiens)
# Sequence (P03952 391-638 limits assumed): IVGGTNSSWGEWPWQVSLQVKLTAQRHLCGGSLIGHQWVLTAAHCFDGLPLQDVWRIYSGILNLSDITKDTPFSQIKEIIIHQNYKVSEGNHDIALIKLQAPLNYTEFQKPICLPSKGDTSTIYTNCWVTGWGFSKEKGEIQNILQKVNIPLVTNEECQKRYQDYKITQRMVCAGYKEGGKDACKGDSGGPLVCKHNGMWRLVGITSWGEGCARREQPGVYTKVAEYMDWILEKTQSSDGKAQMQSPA
# Sequence (P03952 20-390 partner limits assumed): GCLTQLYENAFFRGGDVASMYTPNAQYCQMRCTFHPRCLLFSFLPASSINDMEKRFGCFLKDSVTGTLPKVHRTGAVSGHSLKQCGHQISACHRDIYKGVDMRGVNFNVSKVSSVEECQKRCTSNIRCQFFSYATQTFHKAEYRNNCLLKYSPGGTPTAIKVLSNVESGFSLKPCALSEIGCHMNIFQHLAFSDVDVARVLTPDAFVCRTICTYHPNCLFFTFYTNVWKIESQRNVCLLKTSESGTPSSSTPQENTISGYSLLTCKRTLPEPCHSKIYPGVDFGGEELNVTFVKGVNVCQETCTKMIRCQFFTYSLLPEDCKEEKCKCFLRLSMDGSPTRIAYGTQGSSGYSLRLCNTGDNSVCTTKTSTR
# assay-remarks: Kallikrein inhibition assay utilizing a quenched AMC peptide substrate (FLINT)
# Format: biochemical
# settings: end point read at 30 min; 30 min preincubation; read-out: Kallikrein (EP) IC50

The reported human plasma kallikrein (Homo sapiens) IC50 of O=C(O)c1ccc(-c2cn(C(CC3CC3)c3ccc(-c4cc(Cl)ccc4-n4cnnn4)c[n+]3[O-])cn2)cc1 (stereo not shown) is 306 nM

The reported human plasma kallikrein (Homo sapiens) IC50 of O=C(NC1CC1)c1ccc(-c2cn(C(CC3CC3)c3ccc(-c4cc(Cl)ccc4-n4cnnn4)c[n+]3[O-])nn2)cc1 (stereo not shown) is 367 nM

The reported human plasma kallikrein (Homo sapiens) IC50 of O=C(O)c1ccc(-c2cn(C(CC3CC3)c3ccc(-c4cc(Cl)ccc4-n4cnnn4)c[n+]3[O-])nn2)cc1 (stereo not shown) is 83.5 nM

The reported human plasma kallikrein (Homo sapiens) IC50 of O=C(N[C@H]1C[C@H](O)C1)c1ccc(-c2cn(C(CC3CC3)c3ccc(-c4cc(Cl)ccc4-n4cnnn4)c[n+]3[O-])cn2)cc1 (mixture of isomers) is 1360 nM
